System: NB-4
MEASUREMENT_PROTOCOL: Potentiation of ATRA-induced human NB4 cell growth inhibition at 1 uM after 96 hrs by hemocytometry (reference value: 32.42 +/- 3.98%)
Type: functional
ASSAY_CONTEXT: NB-4, 96 h, read-out: GI
Cut-off 50% on inhibition of growth at 1 µM, inclusive. At or above means true; below means false.

Here's what some known entries look like.
{"COMPOUND": "CC(=O)Nc1ccc(C(=O)Nc2ccc(OCC(=O)O)cc2)cc1", "MEASURED_TARGET": "NB-4", "CAT": "false"}
{"COMPOUND": "CC1=CC(=O)OC2C=C(OCCOc3ccc(C(C)(C)C)cc3)C=CC12 (stereo not given)", "MEASURED_TARGET": "NB-4", "CAT": "false"}
{"COMPOUND": "Clc1cccc(C(c2ccc3[nH]cnc3c2)n2ccnc2)c1 (stereo not given)", "MEASURED_TARGET": "NB-4", "CAT": "false"}
{"COMPOUND": "Cc1oc(C(C)(C)C)cc1C(=O)NC(Cc1ccccc1)C(=O)O (stereo not given)", "MEASURED_TARGET": "NB-4", "CAT": "false"}
{"COMPOUND": "O=C(O)c1ccc(COc2ccc(/C=C3\\SC(=O)N(c4cccc(Cl)c4)C3=O)cc2)cc1", "MEASURED_TARGET": "NB-4", "CAT": "true"}

Exam item: Form field: inhibition of growth at 1 µM at least 50%? Entry: `Cc1cc(O)nc(SCC(=O)c2ccc(O)c(O)c2)n1`
Marked response: true

Exam item: Form field: inhibition of growth at 1 µM at least 50%? Entry: `O=C(CCN1C(=O)c2ccccc2C1=O)Nc1cc(Cl)ccc1C(=O)O`
Marked response: false

---

Tested on: NB-4
MEASUREMENT_PROTOCOL: Potentiation of ATRA-induced human NB4 cell differentiation at 10 uM after 96 hrs by nitroblue tetrazolium assay (reference value: 29.44 +/- 2.03%)
Format: functional
Cut-off 40% on Activity, inclusive. At or above means 1 (yes); below means 0 (no).

Here's what some known entries look like.
{"COMPOUND": "Cc1oc(C(C)(C)C)cc1C(=O)NC(Cc1ccccc1)C(=O)O (stereo not drawn)", "MEASURED_TARGET": "NB-4", "CAT": "1 (yes)"}
{"COMPOUND": "Cc1cccc(-c2nc3cc(/N=C/c4c(C)cc(O)cc4O)ccc3o2)c1", "MEASURED_TARGET": "NB-4", "CAT": "1 (yes)"}
{"COMPOUND": "O=C(O)c1ccc(COc2ccc(/C=C3\\SC(=O)N(c4cccc(Cl)c4)C3=O)cc2)cc1", "MEASURED_TARGET": "NB-4", "CAT": "1 (yes)"}
{"COMPOUND": "O=C(CCN1C(=O)c2ccccc2C1=O)NCc1ccncc1", "MEASURED_TARGET": "NB-4", "CAT": "1 (yes)"}
{"COMPOUND": "O=C(Nc1ccncc1)c1cc(-c2ccc(Br)cc2)nc2ccccc12", "MEASURED_TARGET": "NB-4", "CAT": "0 (no)"}
{"COMPOUND": "COc1ccc(/C=C/C(=O)Nc2sc3c(c2C(=O)O)CCC3)cc1", "MEASURED_TARGET": "NB-4", "CAT": "0 (no)"}
{"COMPOUND": "Clc1cccc(C(c2ccc3[nH]cnc3c2)n2ccnc2)c1 (stereo not drawn)", "MEASURED_TARGET": "NB-4", "CAT": "0 (no)"}
{"COMPOUND": "CCOc1ccc(NS(=O)(=O)c2ccc(Br)cc2)cc1", "MEASURED_TARGET": "NB-4", "CAT": "0 (no)"}

Exam item: Form field: Activity at least 40%? Entry: CC1=CC(=O)OC2C=C(OCCOc3ccc(C(C)(C)C)cc3)C=CC12 (stereo not drawn)
Marked response: 1 (yes)

Exam item: Form field: Activity at least 40%? Entry: `O=C(CCN1C(=O)c2ccccc2C1=O)Nc1cc(Cl)ccc1C(=O)O`
Marked response: 0 (no)

Exam item: Form field: Activity at least 40%? Entry: `Cc1ccc(OCc2nc(-c3cccnc3)no2)c(Br)c1`
Marked response: 0 (no)

---

Tested on: NB-4
MEASUREMENT_PROTOCOL: Potentiation of ATRA-induced human NB4 cell growth inhibition at 5 uM after 96 hrs by hemocytometry (reference value: 32.70 +/- 2.25%)
Type: functional
ASSAY_CONTEXT: NB-4, 96 h, read-out: GI
Task for the reader: assign each of the following compounds its reported inhibition of growth at 5 µM.
Numbers only, in %.

Solved entries:
{"COMPOUND": "Cc1cc(O)nc(SCC(=O)c2ccc(O)c(O)c2)n1", "MEASURED_TARGET": "NB-4", "DISPLAY_UNIT": "%", "inhibition of growth at 5 µM": 53.4}
{"COMPOUND": "O=C(CCN1C(=O)c2ccccc2C1=O)Nc1cc(Cl)ccc1C(=O)O", "MEASURED_TARGET": "NB-4", "DISPLAY_UNIT": "%", "inhibition of growth at 5 µM": 41.3}
{"COMPOUND": "O=C(Nc1ccncc1)c1cc(-c2ccc(Br)cc2)nc2ccccc12", "MEASURED_TARGET": "NB-4", "DISPLAY_UNIT": "%", "inhibition of growth at 5 µM": 63.1}
{"COMPOUND": "CCOc1ccc(NS(=O)(=O)c2ccc(Br)cc2)cc1", "MEASURED_TARGET": "NB-4", "DISPLAY_UNIT": "%", "inhibition of growth at 5 µM": 44.1}
{"COMPOUND": "CC(=O)Nc1ccc(C(=O)Nc2ccc(OCC(=O)O)cc2)cc1", "MEASURED_TARGET": "NB-4", "DISPLAY_UNIT": "%", "inhibition of growth at 5 µM": 45.8}

Look up inhibition of growth at 5 µM for the entries below, preserving their order.
1. O=C(O)c1ccc(COc2ccc(/C=C3\SC(=O)N(c4cccc(Cl)c4)C3=O)cc2)cc1
2. Cc1ccc(OCc2nc(-c3cccnc3)no2)c(Br)c1

Marked response:
1: 43.8; 2: 39.8

Look up inhibition of growth at 5 µM for the entries below, preserving their order.
1. Cc1oc(C(C)(C)C)cc1C(=O)NC(Cc1ccccc1)C(=O)O (stereo not drawn)
2. COc1ccc(/C=C/C(=O)Nc2sc3c(c2C(=O)O)CCC3)cc1
3. Clc1cccc(C(c2ccc3[nH]cnc3c2)n2ccnc2)c1 (stereo not drawn)
4. Cc1cccc(-c2nc3cc(/N=C/c4c(C)cc(O)cc4O)ccc3o2)c1
5. CC1=CC(=O)OC2C=C(OCCOc3ccc(C(C)(C)C)cc3)C=CC12 (stereo not drawn)
6. O=C(CCN1C(=O)c2ccccc2C1=O)NCc1ccncc1

Marked response:
1: 40.2; 2: 31.5; 3: 55.3; 4: 64.3; 5: 43.5; 6: 50.9

---

Test system: NB-4
MEASUREMENT_PROTOCOL: Potentiation of ATRA-induced human NB4 cell growth inhibition at 1 uM after 96 hrs by hemocytometry (reference value: 32.42 +/- 3.98%)
Assay type: functional
ASSAY_CONTEXT: NB-4, 96 h, read-out: GI
OBSERVED_PROPERTY: inhibition of growth at 1 µM (%)
One number for each entry, in %.

Solved entries:
{"ENTRY_SMILES": "Cc1cccc(-c2nc3cc(/N=C/c4c(C)cc(O)cc4O)ccc3o2)c1", "inhibition of growth at 1 µM [%]": 48.5}
{"ENTRY_SMILES": "O=C(Nc1ccncc1)c1cc(-c2ccc(Br)cc2)nc2ccccc12", "inhibition of growth at 1 µM [%]": 48.7}

Continue with the compound presented below.
Exam item: Tell me reported inhibition of growth at 1 µM for `O=C(CCN1C(=O)c2ccccc2C1=O)NCc1ccncc1` , tested with NB-4.
Marked response: 48.5
